# Assayed target: bovine eNOS (Bos taurus)
# Construct: Full-length recombinant rat nNOS, mouse iNOS, bovine eNOS; made in house; host or cells: Escherichia coli
# Sequence (P29473 whole entry): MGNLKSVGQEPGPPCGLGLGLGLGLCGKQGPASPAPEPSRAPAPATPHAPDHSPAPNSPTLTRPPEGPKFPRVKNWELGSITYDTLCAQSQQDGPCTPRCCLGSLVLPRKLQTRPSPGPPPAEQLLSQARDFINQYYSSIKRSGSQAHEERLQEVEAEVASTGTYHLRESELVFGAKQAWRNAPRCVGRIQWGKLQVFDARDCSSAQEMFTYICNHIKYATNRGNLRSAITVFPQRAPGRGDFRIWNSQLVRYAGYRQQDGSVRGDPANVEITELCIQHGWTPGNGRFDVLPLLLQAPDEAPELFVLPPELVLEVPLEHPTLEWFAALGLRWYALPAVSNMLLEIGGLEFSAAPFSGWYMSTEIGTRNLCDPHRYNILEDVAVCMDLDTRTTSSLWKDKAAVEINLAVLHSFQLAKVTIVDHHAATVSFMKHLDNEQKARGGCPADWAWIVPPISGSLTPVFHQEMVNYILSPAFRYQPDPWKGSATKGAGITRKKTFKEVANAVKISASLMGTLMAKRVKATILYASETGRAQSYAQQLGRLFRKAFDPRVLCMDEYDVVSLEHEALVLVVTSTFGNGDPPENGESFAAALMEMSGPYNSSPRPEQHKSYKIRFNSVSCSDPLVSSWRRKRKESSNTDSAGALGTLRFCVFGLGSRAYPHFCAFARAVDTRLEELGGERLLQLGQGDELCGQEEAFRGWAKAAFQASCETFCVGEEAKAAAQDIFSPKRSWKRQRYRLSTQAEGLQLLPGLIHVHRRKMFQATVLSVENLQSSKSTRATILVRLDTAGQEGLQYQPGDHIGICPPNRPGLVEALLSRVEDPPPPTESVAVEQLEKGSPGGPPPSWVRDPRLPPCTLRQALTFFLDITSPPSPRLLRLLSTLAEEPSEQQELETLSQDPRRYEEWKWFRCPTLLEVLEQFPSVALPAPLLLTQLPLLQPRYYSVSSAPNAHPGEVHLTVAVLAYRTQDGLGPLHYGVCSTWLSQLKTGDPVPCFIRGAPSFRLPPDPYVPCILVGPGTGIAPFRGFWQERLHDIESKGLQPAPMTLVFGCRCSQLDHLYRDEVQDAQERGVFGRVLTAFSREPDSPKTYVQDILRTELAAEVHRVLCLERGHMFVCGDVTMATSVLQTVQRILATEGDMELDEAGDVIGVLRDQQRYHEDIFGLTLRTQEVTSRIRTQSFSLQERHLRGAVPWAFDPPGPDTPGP
# Method summary: NOS inhibition, oxyhemoglobin (hemoglobin capture) test, recombinant eNOS
# Assay type: biochemical
# Cond: 1,2,4-oxadiazole series; recombinant enzyme, 10 µM arginine, triplicate; NI = <50% inhibition at 100 μM
Experimental endpoint: log10 of IC50 (log10 of the value in µM)

- Smiles: "CCSC(=N)NCCC[C@H](N)c1nc(CCN(Cc2cccc([N+](=O)[O-])c2)Cc2cccc([N+](=O)[O-])c2)no1"
  log10 of IC50: 0.59
- Smiles: "CCSC(=N)NCCC[C@H](N)c1nc(CCNCc2ccccc2[N+](=O)[O-])no1"
  log10 of IC50: 1.68
- Smiles: "CCSC(=N)NCCC[C@H](N)c1nc(CCN(Cc2ccccc2)Cc2ccccc2)no1"
  log10 of IC50: 2.00
- Smiles: "CCSC(=N)NCCC[C@H](N)c1nc(CCNCc2ccccc2)no1"
  log10 of IC50: 1.25
- Smiles: "CCSC(=N)NCCC[C@H](N)c1nc(CCN(Cc2ccccc2O)Cc2ccccc2O)no1"
  log10 of IC50: 1.31
- Smiles: "CCSC(=N)NCCC[C@H](N)c1nc(CCN(Cc2ccc([N+](=O)[O-])cc2)Cc2ccc([N+](=O)[O-])cc2)no1"
  log10 of IC50: 1.07

###

# IC50 per record follows
# Assayed target: mouse iNOS (Mus musculus, UniProt P29477)
# Construct: Full-length recombinant rat nNOS, mouse iNOS, bovine eNOS; made in house; host or cells: Escherichia coli
# Sequence (P29477 whole entry): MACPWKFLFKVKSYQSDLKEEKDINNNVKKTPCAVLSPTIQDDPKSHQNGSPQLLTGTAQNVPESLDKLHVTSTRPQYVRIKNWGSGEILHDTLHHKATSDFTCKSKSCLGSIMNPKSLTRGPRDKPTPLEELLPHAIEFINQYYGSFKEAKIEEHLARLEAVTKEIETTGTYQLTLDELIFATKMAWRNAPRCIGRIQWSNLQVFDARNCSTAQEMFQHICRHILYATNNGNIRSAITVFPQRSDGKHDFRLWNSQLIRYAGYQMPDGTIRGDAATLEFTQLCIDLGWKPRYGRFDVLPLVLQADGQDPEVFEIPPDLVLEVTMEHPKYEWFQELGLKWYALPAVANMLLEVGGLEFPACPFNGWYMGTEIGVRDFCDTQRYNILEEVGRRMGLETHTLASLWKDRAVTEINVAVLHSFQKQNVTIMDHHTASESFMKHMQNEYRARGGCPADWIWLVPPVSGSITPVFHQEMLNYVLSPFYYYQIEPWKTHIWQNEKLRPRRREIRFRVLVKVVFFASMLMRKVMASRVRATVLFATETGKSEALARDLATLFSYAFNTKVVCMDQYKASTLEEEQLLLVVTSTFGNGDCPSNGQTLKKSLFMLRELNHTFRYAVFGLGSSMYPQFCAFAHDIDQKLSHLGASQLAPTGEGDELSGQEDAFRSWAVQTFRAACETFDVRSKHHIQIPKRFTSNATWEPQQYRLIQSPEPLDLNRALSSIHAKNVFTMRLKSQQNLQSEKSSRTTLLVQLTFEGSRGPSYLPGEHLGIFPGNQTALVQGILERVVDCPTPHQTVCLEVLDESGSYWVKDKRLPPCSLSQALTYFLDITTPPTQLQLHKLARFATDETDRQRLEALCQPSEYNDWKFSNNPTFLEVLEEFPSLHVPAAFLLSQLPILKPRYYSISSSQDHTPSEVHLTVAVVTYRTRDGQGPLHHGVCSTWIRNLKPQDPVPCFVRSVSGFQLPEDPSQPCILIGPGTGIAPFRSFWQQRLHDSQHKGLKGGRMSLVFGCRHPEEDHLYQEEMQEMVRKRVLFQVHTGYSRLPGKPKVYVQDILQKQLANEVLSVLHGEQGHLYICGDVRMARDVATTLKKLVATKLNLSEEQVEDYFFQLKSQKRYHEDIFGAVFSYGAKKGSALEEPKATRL
# Method summary: NOS inhibition, oxyhemoglobin (hemoglobin capture) test, recombinant iNOS
# Assay type: biochemical
# Cond: dipeptide-like series; recombinant enzyme, 20 µM arginine, triplicate; NI = <50% inhibition at 100 μM

- Compound: "CCSC(=N)NCCC[C@H](N)C(=O)N[C@H]1CCCN(Cc2ccc(-c3cccc([N+](=O)[O-])c3)cc2)C1 [Compound 24]"
  Assayed target: "mouse iNOS (Mus musculus, UniProt P29477)"
  Unit descriptor: "µM"
  IC50: 21.6
- Compound: "CCSC(=N)NCCC[C@H](N)C(=O)N[C@H]1CCCN(Cc2ccccc2[N+](=O)[O-])C1 [Compound 12]"
  Assayed target: "mouse iNOS (Mus musculus, UniProt P29477)"
  Unit descriptor: "µM"
  IC50: 46
- Compound: "CCSC(=N)NCCC[C@H](N)C(=O)N[C@H]1CCCN(Cc2cc([N+](=O)[O-])ccc2O)C1 [Compound 14]"
  Assayed target: "mouse iNOS (Mus musculus, UniProt P29477)"
  Unit descriptor: "µM"
  IC50: 27.8
- Compound: "CCSC(=N)NCCC[C@H](N)C(=O)N[C@@H]1CCCN(Cc2cc(O)ccc2O)C1 [Compound 11]"
  Assayed target: "mouse iNOS (Mus musculus, UniProt P29477)"
  Unit descriptor: "µM"
  IC50: 73.4
- Compound: "CCSC(=N)NCCC[C@H](N)C(=O)N[C@H]1CCCN(Cc2cc(O)ccc2O)C1 [Compound 10]"
  Assayed target: "mouse iNOS (Mus musculus, UniProt P29477)"
  Unit descriptor: "µM"
  IC50: 23.9
- Compound: "CCSC(=N)NCCC[C@H](N)C(=O)N[C@H]1CCCN(Cc2ccc(Cl)c(C(F)(F)F)c2)C1 [Compound 17]"
  Assayed target: "mouse iNOS (Mus musculus, UniProt P29477)"
  Unit descriptor: "µM"
  IC50: 12.9
- Compound: "CCSC(=N)NCCC[C@H](N)C(=O)N[C@H]1CCCN(Cc2ccc(-c3ccccc3)cc2)C1 [Compound 23]"
  Assayed target: "mouse iNOS (Mus musculus, UniProt P29477)"
  Unit descriptor: "µM"
  IC50: 46.9
- Compound: "CCSC(=N)NCCC[C@H](N)C(=O)N[C@H]1CCCN(Cc2cc(O)ccc2[N+](=O)[O-])C1 [Compound 15]"
  Assayed target: "mouse iNOS (Mus musculus, UniProt P29477)"
  Unit descriptor: "µM"
  IC50: 31.3
- Compound: "CCSC(=N)NCCC[C@H](N)C(=O)N[C@@H]1CCCN(Cc2ccccc2)C1 [Compound 8]"
  Assayed target: "mouse iNOS (Mus musculus, UniProt P29477)"
  Unit descriptor: "µM"
  IC50: 25.6

###

# Assayed target: rat nNOS (Rattus norvegicus, UniProt P29476)
# Construct: Full-length recombinant rat nNOS, mouse iNOS, bovine eNOS; made in house; host or cells: Escherichia coli
# Sequence (P29476 whole entry): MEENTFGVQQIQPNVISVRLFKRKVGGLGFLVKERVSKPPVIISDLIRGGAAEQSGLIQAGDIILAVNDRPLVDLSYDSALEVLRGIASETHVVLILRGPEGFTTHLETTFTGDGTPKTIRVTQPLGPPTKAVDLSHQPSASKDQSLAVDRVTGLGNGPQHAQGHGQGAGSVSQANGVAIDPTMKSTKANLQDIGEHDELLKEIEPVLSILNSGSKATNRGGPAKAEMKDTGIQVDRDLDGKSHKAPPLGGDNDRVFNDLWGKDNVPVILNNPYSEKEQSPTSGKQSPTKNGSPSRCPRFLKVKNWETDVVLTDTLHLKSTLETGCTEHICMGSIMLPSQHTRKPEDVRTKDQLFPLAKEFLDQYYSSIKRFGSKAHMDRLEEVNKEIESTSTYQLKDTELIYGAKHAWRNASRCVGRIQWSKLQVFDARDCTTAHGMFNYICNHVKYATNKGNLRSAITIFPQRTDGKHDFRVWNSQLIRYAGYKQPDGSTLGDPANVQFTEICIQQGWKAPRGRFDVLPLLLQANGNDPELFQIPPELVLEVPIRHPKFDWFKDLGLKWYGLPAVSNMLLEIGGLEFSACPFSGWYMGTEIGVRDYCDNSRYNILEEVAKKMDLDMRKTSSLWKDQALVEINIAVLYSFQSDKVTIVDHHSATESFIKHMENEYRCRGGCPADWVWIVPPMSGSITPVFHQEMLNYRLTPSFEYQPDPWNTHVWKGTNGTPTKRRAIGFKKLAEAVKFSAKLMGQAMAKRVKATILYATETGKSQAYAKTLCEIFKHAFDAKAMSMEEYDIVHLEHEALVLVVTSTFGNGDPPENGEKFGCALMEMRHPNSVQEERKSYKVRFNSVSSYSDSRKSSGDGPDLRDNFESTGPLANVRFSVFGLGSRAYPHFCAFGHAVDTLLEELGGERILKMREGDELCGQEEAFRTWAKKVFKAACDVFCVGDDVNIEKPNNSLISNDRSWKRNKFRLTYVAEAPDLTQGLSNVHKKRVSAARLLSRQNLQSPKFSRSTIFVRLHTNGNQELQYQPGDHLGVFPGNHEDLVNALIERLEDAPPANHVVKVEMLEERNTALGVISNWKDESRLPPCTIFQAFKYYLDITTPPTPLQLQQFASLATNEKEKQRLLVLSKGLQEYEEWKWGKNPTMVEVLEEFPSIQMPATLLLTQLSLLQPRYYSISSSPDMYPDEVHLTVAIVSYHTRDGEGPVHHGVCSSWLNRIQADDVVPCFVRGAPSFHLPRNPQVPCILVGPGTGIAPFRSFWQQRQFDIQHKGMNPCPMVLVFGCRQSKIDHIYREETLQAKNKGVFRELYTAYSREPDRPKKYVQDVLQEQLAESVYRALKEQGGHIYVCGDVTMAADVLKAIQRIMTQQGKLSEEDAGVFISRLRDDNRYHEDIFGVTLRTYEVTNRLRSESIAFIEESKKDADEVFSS
# Method summary: NOS inhibition, oxyhemoglobin (hemoglobin capture) test, recombinant nNOS
# Assay type: biochemical
# Cond: 1,2,4-oxadiazole series; recombinant enzyme, 10 µM arginine, triplicate; NI = <50% inhibition at 100 μM
So basically: is IC50 under 3 µM? Then rule met. Not under? Then rule not met.

- Smiles: "CCSC(=N)NCCC[C@H](N)c1nc(CCN(Cc2ccccc2C)Cc2ccccc2C)no1"
  Label class: "rule not met"
- Smiles: "CCSC(=N)NCCC[C@H](N)c1nc(CCN(Cc2cc(O)ccc2[N+](=O)[O-])Cc2cc(O)ccc2[N+](=O)[O-])no1"
  Label class: "rule met"
- Smiles: "CCSC(=N)NCCC[C@H](N)c1nc(CCN(Cc2ccccc2)Cc2ccccc2)no1"
  Label class: "rule met"
- Smiles: "CCSC(=N)NCCC[C@H](N)c1nc(CCN(Cc2cccc3ccccc23)Cc2cccc3ccccc23)no1"
  Label class: "rule met"
- Smiles: "CCSC(=N)NCCC[C@H](N)c1nc(CCNCc2ccccc2[N+](=O)[O-])no1"
  Label class: "rule not met"
- Smiles: "CCSC(=N)NCCC[C@H](N)c1nc(CCN(Cc2c(C)cccc2C)Cc2c(C)cccc2C)no1"
  Label class: "rule not met"
- Smiles: "CCSC(=N)NCCC[C@H](N)c1nc(CCNCc2c(C)cccc2C)no1"
  Label class: "rule not met"

###

# IC50 per record follows
# Assayed target: rat nNOS (Rattus norvegicus, UniProt P29476)
# Construct: Full-length recombinant rat nNOS, mouse iNOS, bovine eNOS; made in house; host or cells: Escherichia coli
# Method summary: NOS inhibition, oxyhemoglobin (hemoglobin capture) test, recombinant nNOS
# Type: biochemical
# Cond: dipeptide-like series; recombinant enzyme, 10 µM arginine, triplicate; NI = <50% inhibition at 100 μM
Experimental endpoint: IC50 (µM)

- Compound: "CCSC(=N)NCCC[C@H](N)C(=O)N[C@H]1CCCN(Cc2ccccc2C(F)(F)F)C1 [Compound 19]"
  Experimental endpoint: "IC50"
  Unit descriptor: "µM"
  Value: 7.7
- Compound: "CCSC(=N)NCCC[C@H](N)C(=O)N[C@H]1CCCN(Cc2ccc(-c3cccc([N+](=O)[O-])c3)cc2)C1 [Compound 24]"
  Experimental endpoint: "IC50"
  Unit descriptor: "µM"
  Value: 3.5
- Compound: "CCSC(=N)NCCC[C@H](N)C(=O)N[C@H]1CCCN(Cc2cccc(C(F)(F)F)c2)C1 [Compound 20]"
  Experimental endpoint: "IC50"
  Unit descriptor: "µM"
  Value: 15.4
- Compound: "CCSC(=N)NCCC[C@H](N)C(=O)N[C@H]1CCCN(Cc2cc(OC)c(OC)c(OC)c2)C1 [Compound 16]"
  Experimental endpoint: "IC50"
  Unit descriptor: "µM"
  Value: 49.6
- Compound: "CCSC(=N)NCCC[C@H](N)C(=O)N[C@H]1CCCN(Cc2ccc(-c3ccccc3)cc2)C1 [Compound 23]"
  Experimental endpoint: "IC50"
  Unit descriptor: "µM"
  Value: 5.4
- Compound: "CCSC(=N)NCCC[C@H](N)C(=O)N[C@H]1CCCN(Cc2ccc(C(F)(F)F)c(Cl)c2)C1 [Compound 18]"
  Experimental endpoint: "IC50"
  Unit descriptor: "µM"
  Value: 6
- Compound: "CCSC(=N)NCCC[C@H](N)C(=O)N[C@H]1CCCN(Cc2ccccc2O)C1 [Compound 9]"
  Experimental endpoint: "IC50"
  Unit descriptor: "µM"
  Value: 51.1
- Compound: "CCSC(=N)NCCC[C@H](N)C(=O)N[C@H]1CCCN(Cc2cc([N+](=O)[O-])ccc2O)C1 [Compound 14]"
  Experimental endpoint: "IC50"
  Unit descriptor: "µM"
  Value: 5.4

###

# Assayed target: mouse iNOS (Mus musculus, UniProt P29477)
# Construct: Full-length recombinant rat nNOS, mouse iNOS, bovine eNOS; made in house; host or cells: Escherichia coli
# Method summary: NOS inhibition, oxyhemoglobin (hemoglobin capture) test, recombinant iNOS
# Assay type: biochemical
# Cond: dipeptide-like series; recombinant enzyme, 20 µM arginine, triplicate; NI = <50% inhibition at 100 μM

- Smiles: "CCSC(=N)NCCC[C@H](N)C(=O)N[C@H]1CCCN(Cc2ccccc2O)C1"
  IC50 / µM: 51
- Smiles: "CCSC(=N)NCCC[C@H](N)C(=O)N[C@H]1CCCN(Cc2ccc3ccccc3c2)C1"
  IC50 / µM: 11.9
- Smiles: "CCSC(=N)NCCC[C@H](N)C(=O)N[C@H]1CCCN(Cc2cc(OC)c(OC)c(OC)c2)C1"
  IC50 / µM: 54.9
- Smiles: "CCSC(=N)NCCC[C@H](N)C(=O)N[C@H]1CCCN(Cc2cccc(-c3ccccc3)c2)C1"
  IC50 / µM: 36.5
- Smiles: "CCSC(=N)NCCC[C@H](N)C(=O)N[C@H]1CCCN(Cc2cccc(-c3cccc([N+](=O)[O-])c3)c2)C1"
  IC50 / µM: 48.3
- Smiles: "CCSC(=N)NCCC[C@H](N)C(=O)N[C@@H]1CCCN(Cc2ccccc2[N+](=O)[O-])C1"
  IC50 / µM: 78.9
- Smiles: "CCSC(=N)NCCC[C@H](N)C(=O)N[C@H]1CCCN(Cc2cccc(Br)c2)C1"
  IC50 / µM: 45.5
- Smiles: "CCSC(=N)NCCC[C@H](N)C(=O)N[C@H]1CCCN(Cc2ccccc2)C1"
  IC50 / µM: 73.4

Every entry's value here was drawn from paper PMC10343299.
